- Tested Target: VIPR2 (Homo sapiens, UniProt P41587)
- Sequence (P41587 24-438): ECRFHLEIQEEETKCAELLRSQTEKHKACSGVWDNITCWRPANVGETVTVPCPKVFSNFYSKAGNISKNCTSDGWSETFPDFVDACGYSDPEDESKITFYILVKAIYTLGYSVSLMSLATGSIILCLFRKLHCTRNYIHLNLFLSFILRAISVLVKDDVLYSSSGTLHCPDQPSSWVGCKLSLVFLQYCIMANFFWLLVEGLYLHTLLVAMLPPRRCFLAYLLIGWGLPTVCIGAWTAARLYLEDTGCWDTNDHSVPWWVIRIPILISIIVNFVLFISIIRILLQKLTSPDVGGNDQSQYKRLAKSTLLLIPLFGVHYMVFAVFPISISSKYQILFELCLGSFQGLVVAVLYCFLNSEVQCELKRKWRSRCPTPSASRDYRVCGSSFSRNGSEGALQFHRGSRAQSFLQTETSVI
- Measurement Protocol: Inhibition of VIP-induced β-arrestin recruitment (% Activity Arrestin)
- Format: cell-based
- Design: expressed in transfected cells; host or cells: HEK293 cells transfected with VIPR2 in pCDNA3.1 (as described)
- Conditions: 1 μM, Batch 1
Consider the following compounds and their measured inhibition at 1 µM readings.

# Structure Smiles String, inhibition at 1 µM [%]
rows = [
    ("O=C(NC[C@@H](O)C[C@@H](Cc1ccccc1)C(=O)N[C@H]1c2ccccc2C[C@H]1O)c1ccccc1[N+](=O)[O-]", 35.1),
    ("CC(C)c1ccc(S(=O)(=O)NC[C@@H](O)C[C@@H](Cc2ccccc2)C(=O)N[C@H]2c3ccccc3C[C@H]2O)cc1", 63.1),
    ("Cc1ccc(S(=O)(=O)NC[C@@H](O)C[C@@H](Cc2ccccc2)C(=O)N[C@H]2c3ccccc3C[C@H]2O)cc1", 80.4),
    ("COc1ccc(S(=O)(=O)NC[C@@H](O)C[C@@H](Cc2ccccc2)C(=O)N[C@H]2c3ccccc3C[C@H]2O)cc1OC", 23.2),
    ("O=C(N[C@H]1c2ccccc2C[C@H]1O)[C@H](Cc1ccccc1)C[C@H](O)CNS(=O)(=O)c1ccccc1F", 28.3),
    ("C=Cc1ccc(C(=O)NC[C@@H](O)C[C@@H](Cc2ccccc2)C(=O)N[C@H]2c3ccccc3C[C@H]2O)cc1", 47.5),
    ("COc1ccc(S(=O)(=O)NC[C@@H](O)C[C@@H](Cc2ccccc2)C(=O)N[C@H]2c3ccccc3C[C@H]2O)cc1", 76.7),
]
